Consider the following sequences; for each one, report its shrunken log2 fold change.
System: Escherichia coli TOP10;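 further: peptides expressed intracellularly from a pBAD plasmid library in pooled LB shake-flask culture, induced with 0.3% L-arabinose, DNA abundance read by NGS, three biological replicates, DESeq2 with apeglm shrinkage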
Test: shrunken log2 fold change of peptide-encoding DNA abundance (4.5 h post-induction vs induction); higher = less antimicrobial activity (less host growth inhibition)
Conditions: time post-induction: 4.5 h; library: site-saturation at positions 5, 18, 19, 20

Prompt: Give its shrunken log2 fold change value. Item: RRIRYRPPRLPRPRPRPMWYPRP
Response: -0.884

Prompt: One more sequence: RRIRIRPPRLPRPRPRPCAKPRP
Response: 0.0416

Prompt: One more sequence: RRIRSRPPRLPRPRPRPHLEPRP
Response: -0.395

Prompt: One more sequence: RRIRDRPPRLPRPRPRPNVYPRP
Response: 0.0576

Prompt: One more sequence: RRIRYRPPRLPRPRPRPPIVPRP
Response: -0.756

Prompt: One more sequence: RRIRKRPPRLPRPRPRPVGYPRP
Response: 0.00938

Prompt: One more sequence: RRIRFRPPRLPRPRPRPSNYPRP
Response: -0.396

Prompt: One more sequence: RRIRRRPPRLPRPRPRPLHGPRP
Response: 0.233

Prompt: One more sequence: RRIRQRPPRLPRPRPRPEFQPRP
Response: -0.0764

Prompt: One more sequence: RRIRGRPPRLPRPRPRPTIGPRP
Response: 0.589

Prompt: One more sequence: RRIRSRPPRLPRPRPRPSDQPRP
Response: -0.127

Prompt: One more sequence: RRIRYRPPRLPRPRPRPYWDPRP
Response: -0.483

Prompt: One more sequence: RRIRCRPPRLPRPRPRPGWPPRP
Response: 0.63

Prompt: One more sequence: RRIRMRPPRLPRPRPRPWPLPRP
Response: 0.0935

Prompt: One more sequence: RRIRDRPPRLPRPRPRPDERPRP
Response: 0.0336

Prompt: One more sequence: RRIRPRPPRLPRPRPRPHGWPRP
Response: 0.274

Prompt: One more sequence: RRIRVRPPRLPRPRPRPKMGPRP
Response: 0.0797

Prompt: One more sequence: RRIRERPPRLPRPRPRPVFHPRP
Response: -0.238

Prompt: One more sequence: RRIRHRPPRLPRPRPRPAREPRP
Response: 0.256

Prompt: One more sequence: RRIRYRPPRLPRPRPRPLLLPRP
Response: -0.586

Prompt: One more sequence: RRIRSRPPRLPRPRPRPANEPRP
Response: 0.0433

Prompt: One more sequence: RRIRKRPPRLPRPRPRPDNRPRP
Response: 0.00592

Prompt: One more sequence: RRIRHRPPRLPRPRPRPNHDPRP
Response: -0.719

Prompt: One more sequence: RRIRSRPPRLPRPRPRPLSVPRP
Response: -0.0334

Prompt: One more sequence: RRIRLRPPRLPRPRPRPYNDPRP
Response: -0.0858

Prompt: One more sequence: RRIRDRPPRLPRPRPRPTGYPRP
Response: 0.0485

Prompt: One more sequence: RRIRSRPPRLPRPRPRPASQPRP
Response: 0.0365

Prompt: One more sequence: RRIRARPPRLPRPRPRPNCFPRP
Response: 0.0761

Prompt: One more sequence: RRIRVRPPRLPRPRPRPWYPPRP
Response: -0.884

Prompt: One more sequence: RRIRERPPRLPRPRPRPGWTPRP
Response: 0.0709

Prompt: One more sequence: RRIRCRPPRLPRPRPRPGDHPRP
Response: -0.583

Prompt: One more sequence: RRIRPRPPRLPRPRPRPVAQPRP
Response: 0.123
